system: enzyme having fructose transferase activity derived from a Penicillium microorganism; assay: Properties of the novel Penicillium enzyme: substrate specificity, inhibition, kinetics; assay type: biochemical, Penicillium roqueforti
Measured Property: Substrate specificity (enzyme acts on sugar)

> print(dat)
                                   molecule                               test.target          measurement
1  OC[C@H]1O[C@H](O[C@H]2[C@H](O)[C@@H](O)C(O)O[C@@H]2CO)[C@H](O)[C@@H](O)[C@@H]1O (mixture of isomers)  enzyme having fructose transferase activity derived from a Penicillium microorganism               not on
2  OC[C@H]1O[C@@](CO)(O[C@H]2O[C@H](CO)[C@@H](O)[C@H](O)[C@H]2O)[C@@H](O)[C@@H]1O  enzyme having fructose transferase activity derived from a Penicillium microorganism  effectively acts on
3  OC[C@H]1O[C@@](CO)(OC[C@@]2(O[C@H]3O[C@H](CO)[C@@H](O)[C@H](O)[C@H]3O)O[C@H](CO)[C@@H](O)[C@@H]2O)[C@@H](O)[C@@H]1O  enzyme having fructose transferase activity derived from a Penicillium microorganism  effectively acts on
4  OC[C@H]1O[C@H](OC[C@H]2O[C@H](O[C@]3(CO)O[C@H](CO)[C@@H](O)[C@@H]3O)[C@H](O)[C@@H](O)[C@@H]2O)[C@H](O)[C@@H](O)[C@H]1O  enzyme having fructose transferase activity derived from a Penicillium microorganism  effectively acts on
5  O=C(CO)[C@@H](O[C@H]1O[C@H](CO)[C@@H](O)[C@H](O)[C@H]1O)[C@H](O)[C@H](O)CO  enzyme having fructose transferase activity derived from a Penicillium microorganism               not on

----------
test system: enzyme having fructose transferase activity derived from a Scopulariopsis microorganism; test: Properties of the novel Scopulariopsis enzyme: substrate specificity, inhibition, kinetics; type: biochemical, Scopulariopsis brevicaulis
Measured Property: Substrate specificity (enzyme acts on sugar)

> print(dat)
                                   molecule          measurement
1  OC[C@H]1O[C@@](CO)(OC[C@@]2(O[C@H]3O[C@H](CO)[C@@H](O)[C@H](O)[C@H]3O)O[C@H](CO)[C@@H](O)[C@@H]2O)[C@@H](O)[C@@H]1O  effectively acts on
2  O=C(CO)[C@@H](O[C@H]1O[C@H](CO)[C@@H](O)[C@H](O)[C@H]1O)[C@H](O)[C@H](O)CO               not on
3  OC[C@H]1O[C@H](OC[C@H]2O[C@H](O[C@]3(CO)O[C@H](CO)[C@@H](O)[C@@H]3O)[C@H](O)[C@@H](O)[C@@H]2O)[C@H](O)[C@@H](O)[C@H]1O  effectively acts on
4  OC[C@H]1O[C@@](CO)(O[C@H]2O[C@H](CO)[C@@H](O)[C@H](O)[C@H]2O)[C@@H](O)[C@@H]1O  effectively acts on
5  OC[C@H]1O[C@H](O[C@H]2[C@H](O)[C@@H](O)C(O)O[C@@H]2CO)[C@H](O)[C@@H](O)[C@@H]1O (mixture of isomers)               not on

Reference source: patent US6479657B1
